Target: T1, human MSLN-R1-his protein (human, UniProt Q13421 296-390)
T1 construct: also called human MSLN-R1 protein; hMSLN-R1-his; not shown: His tag
T1 sequence (Q13421 other isoform, or with tags, fused parts or gaps): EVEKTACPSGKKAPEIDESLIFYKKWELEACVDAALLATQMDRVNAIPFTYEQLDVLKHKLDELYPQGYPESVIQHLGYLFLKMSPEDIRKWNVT
Test: ELISA, coated antigen; antibody 1 nM
measurement name: OD450 (OD450)
# number only, unit OD450 dropped from output

// below: answered binders
- S009-F4-94.15 (antibody, human IgG1, kappa, V domains shown, Human-murine chimeric antibody, human IgG1/kappa constant regions) VH: QVQLHQPGAELVRPGSSVKLSCKASGYTFTSYWVHWVQQRPRQGLEWIGNIDPSDSEIHYNQKFKDKATLTVDKSSSTAYIHLSRLTSEDSAIYYCVRGGVPWFAYWGQGTLVTVSA VL: QIVLTQSPAIMSASPGEKVTLTCSASSSVSSTYLYWFQQKPGSSPKVWIYSTSNLASGVPARFSGSGSGTSYSLTISSMEAEDAASYFCHQWISYPYTFGGGTKLEIKR: 0.05
- S009-F4-127.10 (antibody, human IgG1, kappa, V domains shown, Human-murine chimeric antibody, human IgG1/kappa constant regions) VH: EVQLQQSGPVLVKPGASVKMSCKASGYTFTDYYMNWVKQSHGKSPEWIGVINPYNDVISYNQKFKGKATLTVDKSSSTAYMELNSLTSEDSAVYYCANYGSSYYAMDYWGQGTSVTVSS VL: DVVMTQTPLSLSVSLGDQASISCRSSQSLVHSNGNTYLQWSLQKPGQSPNLLIYKVSNRFSGVPDRFSGSGSGTDFTLKISRVEAEDLGVYFCSQTTHVPFTFGGGTKLEIRR: 0.05

Below: the item to evaluate.
Ask: Give the value of OD450 reported for the following: S009-F6-76.1 (antibody, human IgG1, kappa, V domains shown, Human-murine chimeric antibody, human IgG1/kappa constant regions) VH: QVQLQQSGPELVKPGASVKISCKASGYTFTDYYINWVKQRPGQGLEWIGWIFPGRGSTFYYEKFKGKATLTVDKSSSTAYMLLSSLTSEDSAVYFCARRGDSAGYEDLDYWGQGTSVTVSS VL: NIVMTQSPKFMSMSVGERVTLSCKASENVVTYVSWYQQKPKQSPKLLIYGASKRYTGVPDRFTGSGSATDFTLTISSVQAEDLGDYHCGQSYSYPYTFGGGTKLEIKR
Reply: 0.04
